B1: TEKT4 (parent)
chain: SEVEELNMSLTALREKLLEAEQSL

Variants of: B1
Assay: protein stability index of a GFP-peptide fusion (GPS, HEK-293T) (PSI 1-6); higher = more stable;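 further: lentivirally expressed fusions sorted by FACS into six bins by GFP to DsRed ratio, PSI derived from sequencing read proportions per bin multiplied by bin number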
Details: c terminus: a fixed tail appended
So basically: protein stability index at 3 or higher? That is true. Lower than 3? That is false.

Hello, I need to know if `L24R` has measured protein stability index not below 3. Thanks! true

Hello, I need to know if `R14E` has measured protein stability index not below 3. Thanks! true

Hello, I need to know if `E4N` has measured protein stability index not below 3. Thanks! true

Hello, I need to know if `E2I` has measured protein stability index not below 3. Thanks! false

Hello, I need to know if `L24A` has measured protein stability index not below 3. Thanks! true

Hello, I need to know if `E4I` has measured protein stability index not below 3. Thanks! false

Hello, I need to know if `E15A` has measured protein stability index not below 3. Thanks! false

Hello, I need to know if `L24D` has measured protein stability index not below 3. Thanks! true

Hello, I need to know if `S9L` has measured protein stability index not below 3. Thanks! false

Hello, I need to know if `E21A` has measured protein stability index not below 3. Thanks! false

Hello, I need to know if `L10H` has measured protein stability index not below 3. Thanks! true

Hello, I need to know if `E5G` has measured protein stability index not below 3. Thanks! false

Hello, I need to know if `E5M` has measured protein stability index not below 3. Thanks! false

Hello, I need to know if `A12D` has measured protein stability index not below 3. Thanks! true

Hello, I need to know if `Q22P` has measured protein stability index not below 3. Thanks! true

Hello, I need to know if `K16P` has measured protein stability index not below 3. Thanks! true

Hello, I need to know if `A12R` has measured protein stability index not below 3. Thanks! false

Hello, I need to know if `E5H` has measured protein stability index not below 3. Thanks! false

Hello, I need to know if `L13M` has measured protein stability index not below 3. Thanks! true

Hello, I need to know if `E2G` has measured protein stability index not below 3. Thanks! false

Hello, I need to know if `E15L` has measured protein stability index not below 3. Thanks! false

Hello, I need to know if `L24I` has measured protein stability index not below 3. Thanks! true

Hello, I need to know if `V3A` has measured protein stability index not below 3. Thanks! true

Hello, I need to know if `A20R` has measured protein stability index not below 3. Thanks! true

Hello, I need to know if `K16F` has measured protein stability index not below 3. Thanks! false

Hello, I need to know if `L6V` has measured protein stability index not below 3. Thanks! true

Hello, I need to know if `L24E` has measured protein stability index not below 3. Thanks! true

Hello, I need to know if `E19K` has measured protein stability index not below 3. Thanks! true

Hello, I need to know if `R14N` has measured protein stability index not below 3. Thanks! true

Hello, I need to know if `L10C` has measured protein stability index not below 3. Thanks! true

Hello, I need to know if `L6N` has measured protein stability index not below 3. Thanks! true

Hello, I need to know if `S23K` has measured protein stability index not below 3. Thanks! true

Hello, I need to know if `L18E` has measured protein stability index not below 3. Thanks! true

Hello, I need to know if `L13Y` has measured protein stability index not below 3. Thanks! true

Hello, I need to know if `S23E` has measured protein stability index not below 3. Thanks! true

Hello, I need to know if `L17M` has measured protein stability index not below 3. Thanks! false

Hello, I need to know if `A12P` has measured protein stability index not below 3. Thanks! true

Hello, I need to know if `N7T` has measured protein stability index not below 3. Thanks! false

Hello, I need to know if `K16H` has measured protein stability index not below 3. Thanks! false

Hello, I need to know if `L17C` has measured protein stability index not below 3. Thanks! true

Hello, I need to know if `R14Q` has measured protein stability index not below 3. Thanks! true

Hello, I need to know if `Q22H` has measured protein stability index not below 3. Thanks! false

Hello, I need to know if `E21V` has measured protein stability index not below 3. Thanks! false

Hello, I need to know if `N7K` has measured protein stability index not below 3. Thanks! false
